FYI, the data here is from the nanobody polyreactivity screen of Harvey et al. (2022).

- test protocol: yeast display, Sf9 membrane polyspecificity reagent, FACS + sequencing; frameworks hold sequencing errors
property: polyreactivity (PSR sort gate)

| residue string | value reported |
| --- | --- |
| QVQLVESGGGLVQAGGSLRLSCAASGSTFYPYAMGWYRQAPGKEREFVARISVSAGRTYYADSVKGRFTISRDNAKNTVYLQMNSLKPEDTAVYYCAKGIPTFYGSPRYDYWGQGTQVTVSS | low polyreactivity |
| QVQLVESGGGLVQAGGSLRLSCAASGSIFIYYAMGWYRQAPGKERELVAAITWRSGSTYYADSVKGRFTISRDNAKNTVYFQRNSLKPEDNAVNYCAAYAWTATDSARPYGYDYWGQGTQVTVSS | low polyreactivity |
| QVQLQESGRGLVQAGGSLRLSCAASGSISILQSMGWYRQAPGKERELVAGINWGATTYYADSVKGRLTTSRDYAKNTVYLQMNSLKPEDTAVYYCAVPTYYTYPLLYWGQGTQVTVSS | low polyreactivity |
| QVQLVESGGGLVQAGGSLRLSCAASGSIFPVNTMGWYRQAPGKERELVAAITQRGGRTYYADSVKGRFTISRDNAKNTVYLQMNSLKPEDTAVYYCNRDLGAGGYDYWGQGTQVTVSS | low polyreactivity |
| QVQLVESGGGLVQAGGSLRLSCAASGRTFESYAMGWYRQAPGKERELVAAITWSGGDTYYADSVKGRFTISRDNAKNSVYLQMNSLKPEDTAVYYCAKEQGLYSVSPYDYWGQGSQVTVSS | low polyreactivity |

* * *

- test protocol: yeast display, Sf9 membrane polyspecificity reagent, FACS + sequencing; frameworks hold sequencing errors

| residue string | polyreactivity (PSR sort gate) |
| --- | --- |
| QVQLVESGGGLVQAGGSLRLSCAASGSIFNYNMGWYRQAPGKERELVAAITSSGGSTYYADSVKGRFTISRDNAKNTVYLQMNSLKPEDTAVYYCAAPISRSAGWDSYDYWGQGTQVTVSS | low polyreactivity |
| QVQLVESGGGLVQAGGSLRLSCAASGSIFGSYTMGWYRQAPGKERELVAAITSSGGGTYYADSVKGRFTISRDNAKNTVYLQMNSLKPEDTAVYYCAAEYRDGYRFSYDYWGQGTQVTVSS | low polyreactivity |
| QVQLVESGGGLVQAGGSLRLICAASGRIFRIYAIGWYRQAPGKERELVARITYSGGSTYYADSVKGRFTISRDNAKNSVYLLMNSLKPEETAVYYCAADWLGYQYGYWGQGTQVTVSS | low polyreactivity |
| QVQLQESGGGMVQAGGSLRLSCAASGYISWADNMAWYRQAPGKERELVAGIGYGSTTYYADSVKGRFTISRDNAKNTAYLQMNSLKPEDTSVYYCAVGWYRDTAYKYWGQGTQVTVSS | low polyreactivity |
| QVQLVESGGGLVQAGGSLRLSCAASGRTFYLNTMGWYRQAPGKERELVAGITSSGTRTYYADSVKGRFTISRDNAKNTVYLQMNSLKPEDTAVYYSAKTWGGQIRPRYRYGSGYDYWGQGTQVTVSS | high polyreactivity |
| QVQLVESGGGLVQAGGSLRLSCAASGRIFAAYAMGWYRQAPGKERELVATITRGGSTYYADSVKGRFTISRDNAKNTVYLQMNSLKQKDTAVYYCAVKRGFTQYKPFNYWGQGTQVTVSS | high polyreactivity |
| QVQLVESGGGLVQAGGSLRLSCAASGSTFSNYAMGGYRQAPGKERELVAAITSGGTTNYADSVKGRFTISRDNAKNTVYLQMNSLKPEDTAVYYCAKRYSYHVPTHIWVEYYYWGQGTQVTVSS | low polyreactivity |
| QVQLVESGGGLVQAGGSLRLSCAASGFTFNAHAMGWYRQAPGKERELVAVITRSGGRTYYADSVKGRFTISRDNAKNTVYLQMNSLKPEDTAVYYCAKEGPSRVYQGTDSASDYWGQGTQVTVSS | high polyreactivity |
| QVHHVESGGGLVQAGGSLRLSCAASGLILVPNTMGWYRQAPGKERELVAAISYSGGGTYYADSVKGRFTISRDNAKNNVYLQMNSLKPEDTAVYYCAAYVKRESAPYGYWGQGTQVTVSS | low polyreactivity |
| QVQLVESGGGLVQAGGSLRLSCAASGSIFYDNAMGWYRQAPGNERELVAAIDDSDRTNYADSVKGRFTITRDNAKNTVYLQMNSLKPEDTAVYYCARDRWKWHYGYDYWGQGTQVTVSS | low polyreactivity |
| QVQLQESGGGLVQAGGSQRLTCAASGYIFYFQYMGWYRPAPGKEREFVAAISDGANTNYADSVKGRFTISRDNAKNTEYLQMNSLKPEDTAVYYCSVYADENYYYIYWGQGTQVTVSS | low polyreactivity |
